Reference source: paper PMC12992107

Experiment: Plasma protein binding, dilution method
Conditions: plasma diluted 1:10 or 1:20 in 0.9% saline

# Compound, fraction unbound at 24 h, 25 ng/mL
measured = [
    ("CCC(C)n1ncn(-c2ccc(N3CCN(c4ccc(OCC5COC(Cn6cncn6)(c6ccc(Cl)cc6Cl)O5)cc4)CC3)cc2)c1=O (stereo not shown) [itraconazole, reference compound]", 0.006),
]

====

System: RF12 (PH-1263-C)
Experiment: microbe, parasite or virus in culture
Assay type: cell-based
Conditions: Plasmodium falciparum, 72 h, read-out: IC50, RF12 (PH-1263-C)
pIC50: −log10 of the molar value.
Measured attribute: pIC50

# Compound, Experimental value
rows = [
    ("Cl.N=C(CC(O)c1cc2c(F)cc(F)cc2c2cc(C(F)(F)F)ccc12)Nc1ccc(F)cc1 (stereo not shown) [2 (TKK130)]", 8.40),
]
